Catalogue of molecules with associated TGI
Test system: EKVX NSCLC
procedure text: NCI tumour cell line growth inhibition, 48 h
Lab book: enter the figure in µM, no units written.

Some entries whose results are on file:
molecule: Cn1c(SCc2c[nH]c3ccccc23)nnc1-c1ccc(Cl)cc1Cl
output unit: µM
measured result: 49.6
--
molecule: CCN(CCNc1ccc(C)c2sc3cc(Cl)ccc3c(=O)c12)CC(C)(C)O
output unit: µM
measured result: 21.6
--
molecule: CC/C(=C(/c1ccc(/C=C/C(=O)O)cc1)c1ccc2[nH]ncc2c1)c1ccc(F)cc1Cl
output unit: µM
measured result: 32.3
--
molecule: CN(C)CCNC(=O)c1cccc2cc3ccc4ccccc4c3nc12
output unit: µM
measured result: 0.495
--
molecule: O=S(=O)(/N=C(\NO)Nc1ccc(Cl)cc1)c1cc(S(=O)(=O)c2ccccc2)cs1
output unit: µM
measured result: 35.4
--
molecule: O=c1c2ccccc2n2cnc3ccc(NCCNCCO)c1c32
output unit: µM
measured result: 8.49
--
molecule: O=C(/C=C/c1cccc(Oc2ccc(Cl)cc2)c1)c1ccccc1
output unit: µM
measured result: 261
--
molecule: Cc1ccc(NC2=CC(=O)C(=O)c3ccccc32)c(C)c1
output unit: µM
measured result: 24.3

Consider the record given below.
Recorded TGI for CCc1c(C#N)c(SC(C(N)=O)c2ccccc2)nc(N2CCC(N)CC2)c1C#N (stereo unspecified) on EKVX NSCLC was 36.9

###

Test system: MDA-MB-435
procedure text: NCI tumour cell line growth inhibition, 48 h
quantity name: TGI

Some entries whose results are on file:
compound: COc1ccc(C(=O)/C=C/c2ccc(OCc3ccccc3)c(OC)c2)cc1OC
TGI: > 100 µM

compound: C/C(=N\Nc1nc2ccccc2n1C)c1ccc2ccccc2n1
TGI: 42.7 µM

compound: Cc1ccc(NC(=O)c2ccc(NC3=C(Cl)C(=O)N(Cc4ccccc4)C3=O)cc2)cc1Cl
TGI: > 100 µM

compound: CCN(CCNc1ccc(C)c2sc3cc(Cl)ccc3c(=O)c12)CC(C)(C)O
TGI: 4.59 µM

Consider the record given below.
Reported TGI of CC(N)=O.[Cl][Pt][Cl].[NH-]c1ccn(C2OC(CO)C(O)C2O)c(=O)n1 (stereo not given) : > 100 µM

###

System: SNB-75 CNS
procedure text: NCI tumour cell line growth inhibition, 48 h; in the data active = GI50 below about 0.43 µM; inactive = the rest
Field 'call' accepts active, inactive

Sample answers from the record:
compound: CN(C)CCS(=O)(=O)Nc1cc(-c2ccc3ncnc(Nc4ccc(F)c(Cl)c4)c3c2)cnc1Cl
class: active
--
compound: CN(C)c1ccc2c(c1)OC(N)=C(C#N)C2c1ccc2c(c1)CCCN2C (stereo not given)
class: inactive
--
compound: Oc1ccc(-c2[nH]c3ccccc3c2-c2nc3ccccc3o2)cc1
class: inactive
--
compound: OC(c1cc(-c2ccc(Cl)cc2)nc2c(Cl)cccc12)C1CCCCN1 (stereo not given)
class: inactive

Now, please, on to the next compound.
Short answer needed: outcome of this test for CCN(CC)C(=O)CCCCCn1c2ccccc2c2c3c(c4c5ccccc5[nH]c4c21)C(=O)N(O)C3=O ? inactive

###

Test system: SK-OV-3 ovarian
procedure text: NCI tumour cell line growth inhibition, 48 h; in the data active = GI50 below about 0.43 µM; inactive = the rest
Field 'call' accepts true = active, false = inactive

compound: COc1ccc(C(=O)/C=C/c2ccc(OCc3ccccc3)c(OC)c2)cc1OC
class: false
--
compound: c1ccc2c(c1)[O][Sn][O]2
class: false
--
compound: Cc1ccccc1CNc1c2ccccc2nc2ccccc12
class: false
--
compound: Nc1ccn([C@@H]2S[C@H](CO)[C@@H](O)[C@@H]2F)c(=O)n1
class: true
--
compound: N#Cc1cccc(C2C3=C(COC3=O)N(CCO)c3cc4c(cc32)CCC4)c1 (configuration not stated)
class: true

Now, please, on to the next compound.
Short answer needed: outcome of this test for CCc1c(C#N)c(SC(C(N)=O)c2ccccc2)nc(N2CCC(N)CC2)c1C#N (configuration not stated) ? false

###

Catalogue of molecules with associated TGI
System: SK-MEL-28 melanoma
procedure text: NCI tumour cell line growth inhibition, 48 h

Some entries whose results are on file:
molecule: CCOC(=O)[C@H]1Nc2c(cccc2[N+](=O)[O-])C2c3ccccc3CC21 (some centres not stated)
study system: SK-MEL-28 melanoma
TGI: > 100 µM
--
molecule: Cn1cnnc1SC(F)(F)c1nc2ccccc2o1
study system: SK-MEL-28 melanoma
TGI: > 100 µM
--
molecule: CC(=O)Oc1ccc2cc(Oc3ccccc3)c(=O)oc2c1
study system: SK-MEL-28 melanoma
TGI: > 100 µM
--
molecule: Cc1n(Cc2ccc3ccccc3n2)cc[n+]1Cc1ccc2ccccc2c1
study system: SK-MEL-28 melanoma
TGI: 7 µM
--
molecule: O=C(Nc1ccc(Cl)c(C(F)(F)F)c1)C(=O)c1c(O)c2ccccc2oc1=O
study system: SK-MEL-28 melanoma
TGI: > 100 µM
--
molecule: COc1cccc(/C=N/[N-]C(N)=O)c1[O-].[OH3+].[Pd+2]
study system: SK-MEL-28 melanoma
TGI: > 100 µM
--
molecule: Nc1c(-c2nc3ccccc3s2)[n+]([O-])c2ccccc2[n+]1[O-]
study system: SK-MEL-28 melanoma
TGI: 61.5 µM
--
molecule: COc1cccc(/C=C2/S/C(=N/Nc3nc(C)c(C(C)=O)s3)NC2=O)c1O
study system: SK-MEL-28 melanoma
TGI: > 100 µM

Reported TGI of O=C(CN(/C=C/C(=O)C(F)(F)F)c1ccccc1)c1ccc(F)cc1 : > 100 µM

Reported TGI of CCOc1cc(/C=C/C(=O)CC(=O)/C=C/c2ccc(OC(=O)CNCCN(CC)CC)c(OCC)c2)ccc1OC(=O)CNCCN(CC)CC : 4.56 µM

Reported TGI of Cn1cc(NC(=O)c2cc(NC(=O)CCCCCCCC(=O)Nc3cc(C(=O)Nc4cc(C(=O)NCCC(=N)N)n(C)c4)n(C)c3)cn2C)cc1C(=O)NCCC(=N)N : 26.3 µM

Reported TGI of CCOC(=O)[C@@H]1C[C@@H]1c1ccc(O)c(O)c1 : > 100 µM

Reported TGI of Nc1nc(-c2ccccc2)cc(-c2cc(Cl)ccc2O)n1 : > 100 µM

Reported TGI of Nc1ncnc2c1ncn2CCOC(c1ccccc1)P(=O)(O)O (configuration not stated) : > 100 µM

Reported TGI of COC(=O)C1=Nc2ccc(F)cc2/C1=C/c1sc(=S)[nH]c1O : > 83.5 µM

Reported TGI of O=C1c2ccoc2C(=O)c2oc(=O)ccc21 : 11.5 µM

Reported TGI of Oc1c(I)cc(Cl)c2cccnc12 : > 100 µM

Reported TGI of Cc1ccccc1CNc1c2ccccc2nc2ccccc12 : 5.02 µM

Reported TGI of Clc1cccc2[nH]ncc12 : > 100 µM

Reported TGI of CC1CCC2c3c([nH]c4ccccc34)C3C(=O)N(c4ccccc4)C(=O)C3C2C1 (configuration not stated) : > 250 µM

Reported TGI of CC(=O)Oc1ccc(/C=C/C(=O)NCCOC(=O)/C=C/c2ccc(OC(C)=O)c(OC(C)=O)c2)cc1OC(C)=O : > 100 µM

Reported TGI of N#C[C@H](C(=O)c1ccccc1F)c1nc2ccccc2[nH]1 : > 100 µM

###

System: PC-3 prostate
procedure text: NCI tumour cell line growth inhibition, 48 h
quantity name: TGI

compound: CC1=C2CC(C)(C)CC(=O)C2(C)CCC1=O (centres undefined)
TGI: > 100 µM
//
compound: Cc1ccc2oc3c(ccc(=O)n3C)c(=O)c2c1
TGI: > 100 µM
//
compound: CCN(CC)C(=S)SSCCO
TGI: 28.1 µM
//
compound: CCN(CC)C(=O)CCCCCn1c2ccccc2c2c3c(c4c5ccccc5[nH]c4c21)C(=O)N(O)C3=O
TGI: 52.9 µM
//
compound: O=C1c2ccccc2-c2c1c1ccc([N+](=O)[O-])cc1c(=O)n2CCCCl
TGI: > 100 µM

Reported TGI of COCCOCCOCCC(=O)NC1CC2CCC1(C)C2(C)C (centres undefined) : > 100 µM

Reported TGI of COc1cccc(Nc2nc(NS(=O)(=O)c3cc(C)c(Cl)cc3S)n[nH]2)c1 : > 100 µM

Reported TGI of Cc1cc(C)c(S(=O)(=O)N(CCCN)OCCCN)c(C)c1 : > 100 µM

Reported TGI of FC(F)(F)c1cnc(N/N=C(/c2ccccc2)c2ccccn2)c(Cl)c1 : 24.6 µM

###

Tested on: SK-MEL-2 melanoma
procedure text: NCI tumour cell line growth inhibition, 48 h
Catalogue of compounds with associated GI50

Some entries whose results are on file:
compound: CCOc1cc(/C=C/C(=O)CC(=O)/C=C/c2ccc(OC(=O)CNCCN(CC)CC)c(OCC)c2)ccc1OC(=O)CNCCN(CC)CC
study system: SK-MEL-2 melanoma
GI50: 1680 nM
//
compound: Cc1nn2c(-c3nc4cc(Cl)c(Cl)cc4[nH]3)c(-c3ccc(F)cc3)nc2s1
study system: SK-MEL-2 melanoma
GI50: 14200 nM
//
compound: CC1(C)N=C(N)N=C(N)N1c1ccc(OCCCCNC(=O)Nc2cccc(S(=O)(=O)F)c2)c(Cl)c1
study system: SK-MEL-2 melanoma
GI50: 13600 nM
//
compound: CC(C)C/C(=N\NC(=O)c1ccncc1)c1cc(Cl)ccc1O
study system: SK-MEL-2 melanoma
GI50: 1870 nM

Reported GI50 of CCN(CC)CCCNc1c2ccc(Cl)cc2nc2ccc(OC)cc12 : 1690 nM

Reported GI50 of Nc1c(C(=O)Nc2ccccn2)sc2nc3c(cc12)CCCCCC3 : 965 nM

Reported GI50 of CN(c1ccc(NC(=O)NCCN2CCOCC2)cc1)c1ccnc(Nc2ccc(CS(C)(=O)=O)cc2)n1 : > 25000 nM

Reported GI50 of Nc1ccn([C@@H]2S[C@H](CO)[C@@H](O)[C@@H]2F)c(=O)n1 : > 100000 nM

Reported GI50 of O=C1C2C(C(=O)N1CC[Se][Se]CCN1C(=O)C3C(C1=O)[C@H]1C=C[C@@H]3C1)[C@H]1C=C[C@@H]2C1 (stereo partly specified) : 1980 nM

Reported GI50 of COc1cc(OC)c(/C=C/C(=O)c2c(N)cc(OC)cc2OC)c(OC)c1 : 528 nM

Reported GI50 of CC1(C)CC(O)CC(C)(C)N1.CC1(C)CC(O)CC(C)(C)N1.CC1(C)CC(O)CC(C)(C)N1.CC1(C)CC(O)CC(C)(C)N1.Cl.[Ti] : > 100000 nM
